- Test system: TGFBR2
- Condition Context: concentration: 1 μM, replicates: in singlicate; n = 1;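 note: KINOMEscan kinase panel screen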
Please provide measured %Inh for the entries that follow.
Give bare numbers, in %.

# Entry Smiles, Measurement Units, Result
records = [
    ("Cc1cccc(-c2nc(Nc3cccc(C(N)=O)c3)c3ccccc3n2)n1", "%", 15),
]

I have 4 molecules here; please give me %Inh for each one.
1. Cc1ccccc1-n1cnc2c(N)ncnc21
2. Cl.c1ccc(-c2n[nH]cc2-c2ccnc(-c3ccc(CN4CCOCC4)cc3)c2)nc1
3. C[C@@H]1CCCCN1c1cc(-c2ccc3c(N)n[nH]c3c2)nc(N)n1
4. O=C(Nc1n[nH]c2cc(-c3cccc(F)c3F)ccc12)C1CC1

Reply text:
0
87
0
14

###

- Tested on: PIP5K2B
- Condition Context: concentration: 1 μM, replicates: in singlicate; n = 1
One threshold, 10%, splits the recorded %Inh values: lower ones are yes (1), equal or higher ones are no (0).

Check out these entries, answers already filled in.
# Compound, Group Label
data = [
    ("O=C1NC(=O)C(N2CCc3ccccc32)=C1c1ccccc1Cl [SB-373598]", "no (0)"),
    ("COC(=O)c1c(-c2ccccc2)c2cc(OC)ccc2c(=O)n1Cc1ccccc1", "no (0)"),
    ("CS(=O)(=O)c1ccc(-c2nc3n(c2-c2ccncc2)CCC3)cc1 [SKF-105942]", "no (0)"),
]

Inquiry: # TODO verify %Inh < 10% strictly for this compound: `NC(=O)c1nnc2ccccc2c1N`
Reply text: yes (1)

Inquiry: # TODO verify %Inh < 10% strictly for this compound: COc1ccc(CNC(=O)NC2CCN(c3ccnc(Nc4cc(OC)c(OC)c(OC)c4)n3)C2)cc1 (centres unmarked) [GSK1379748]
Reply text: yes (1)

###

Please provide measured %Inh for the entries that follow.
- Test system: PYK2
- Construct: gene PTK2B
- Condition Context: concentration: 1 μM, replicates: in singlicate; n = 1
Answers are plain numbers, in %.

# Compound, %Inh (%)
data = [
    ("COc1cc2ncn(-c3cc(OCC4CCCO4)c(C(N)=O)s3)c2cc1OC (stereo not drawn)", 0),
    ("CC(C)(C)c1ccc(C(=O)Nc2cn3cc(-c4cccnc4)ccc3n2)cc1", 7),
    ("COc1cccc(NC(=O)NC2CCN(c3ccnc(Nc4ccc(F)cc4)n3)C2)c1 (stereo not drawn)", 0),
    ("Cc1c(O)cccc1Nc1ccnc2ccc(C(F)(F)F)cc12.Cl", 0),
    ("O=S(=O)(c1ccc(-c2ccnc3[nH]ccc23)cc1)N1CCCC1", 0),
]

I have 4 compounds here; please give me %Inh for each one.
1. O=C(Nc1ccc2c(c1)OCO2)NC1CCN(c2ccnc(Nc3ccc(F)cc3)n2)C1 (stereo not drawn)
2. Cl.O=C(Nc1cccc(-c2nn3ncccc3c2-c2ccnc(Nc3cccnc3)n2)c1)c1c(F)cccc1F
3. COc1ccc2nc(-c3cccc(C)n3)nc(Nc3ccncc3)c2c1
4. Cc1ccc(-c2cc(-c3c[nH]nc3-c3ccccn3)ccn2)cc1

Reply text:
1: 0; 2: 0; 3: 9; 4: 16

###

Please provide measured %Inh for the entries that follow.
- System: RPS6KA4(Kin.Dom.1-N-terminal)
- Condition Context: concentration: 1 μM, replicates: in singlicate; n = 1
Numbers only, in %.

Solved entries:
# Compound, Study System, Measurement Units, %Inh
measured = [
    ("C[C@@H]1CCCCN1c1cc(-c2ccc3c(N)n[nH]c3c2)nc(N)n1 [GSK2258759]", "RPS6KA4(Kin.Dom.1-N-terminal)", "%", 4),
    ("COc1cc2ncn(-c3cc(OCC4CCCO4)c(C(N)=O)s3)c2cc1OC (stereo not drawn) [GSK204607]", "RPS6KA4(Kin.Dom.1-N-terminal)", "%", 0),
    ("O=c1cc(N2CCOCC2)nc2n(Cc3cccc(Cl)c3Cl)ccn12 [GSK2286295]", "RPS6KA4(Kin.Dom.1-N-terminal)", "%", 17),
    ("Cc1nnc(-c2ccc3occ(-c4ccc(S(C)=O)cc4)c3c2)[nH]1 (stereo not drawn)", "RPS6KA4(Kin.Dom.1-N-terminal)", "%", 0),
    ("Fc1cc(Cl)ccc1Nc1ccnc2cc(-c3ccc(CN4CCCCC4)o3)ccc12 [GW560116]", "RPS6KA4(Kin.Dom.1-N-terminal)", "%", 0),
]

Inquiry: Report value: %Inh, system: RPS6KA4(Kin.Dom.1-N-terminal), compound: Cc1c(Cn2ccn3c(=O)cc(N4CCOCC4)nc23)cccc1C(F)(F)F [GSK2289044]
Reply text: 0
